Measured values drawn from patent US20190144529A1 for this set.

TARGET_ENTITY: T1, human serum albumin (human, UniProt P02768 25-609)
T1 construct: mature; Bought purified serum albumin; also called HSA; Human albumin
METHOD_DESCRIPTION: SPR, Fab captured; albumin taken as HSA;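 also: antibody captured on the sensor surface, albumin injected for a 3 min association phase, then dissociation followed, with signals corrected against a blank flow cell and buffer-only injections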
Listing of entries alongside the reported koff.
Use s⁻¹ as the unit, but write only the number.

Solved cases below.
BINDER: CA645 gL21gH5 Fab (Fab, V domains shown, Fab: human gamma1 CH1, human kappa (Km3); Kabat numbering) VH: EVQLLESGGGLVQPGGSLRLSCAVSGIDLSNYAINWVRQAPGKGLEWIGIIWASGTTFYATWAKGRFTISRDNSKNTVYLQMNSLRAEDTAVYYCARTVPGYSTAPYFDLWGQGTLVTVSS VL: DIQMTQSPSSVSASVGDRVTITCQSSPSVWENFLSWYQQKPGKAPKLLIYEASKLTSGVPSRFSGSGSGTDFTLTISSLQPEDFATYYCGGGYSSISDTTFGGGTKVEIK
ENDPOINT_UNIT: s⁻¹
koff: 0.000323

BINDER: CA645 gL4gH33 Fab (Fab, V domains shown, Fab: human gamma1 CH1, human kappa (Km3); Kabat numbering) VH: EVQLLESGGGLVQPGGSLRLSCAVSGIDLSNYAINWVRQAPGKGLEWIGIIWALGTTFYATWAKGRFTISRDNSKNTVYLQMNSLRAEDTAVYYCARTVPGYSTAPYFDLWGQGTLVTVSS VL: DIQMTQSPSSVSASVGDRVTITCQSSPSVWSNFLSWYQQKPGKAPKLLIYEASKLTSGVPSRFSGSGSGTDFTLTISSLQPEDFATYYCGGGYSSISDTTFGGGTKVEIK
ENDPOINT_UNIT: s⁻¹
koff: 0.00024

Consider the additional binder presented here.
Task: Quote koff reported for CA645 gL16gH5 Fab (Fab, V domains shown, Fab: human gamma1 CH1, human kappa (Km3); Kabat numbering) VH: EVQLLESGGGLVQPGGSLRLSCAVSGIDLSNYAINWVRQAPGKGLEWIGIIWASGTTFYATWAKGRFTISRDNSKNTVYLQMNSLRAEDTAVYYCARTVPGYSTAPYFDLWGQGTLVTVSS VL: DIQMTQSPSSVSASVGDRVTITCQSSPSVWWNFLSWYQQKPGKAPKLLIYEASKLTSGVPSRFSGSGSGTDFTLTISSLQPEDFATYYCGGGYSSISDTTFGGGTKVEIK please.
Output: 0.000169
